system: PAK2; settings: concentration: 1 μM, replicates: in singlicate; n = 1;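 also: KINOMEscan kinase panel screen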
Listed next: entries and their corresponding %Inh.
Give just the number in %; leave the unit off.

{"COMPOUND": "O=C1NC(=O)C(N2CCc3ccccc32)=C1c1ccccc1Cl [SB-373598]", "OUTPUT_UNIT": "%", "OBSERVED_VALUE": 10}
{"COMPOUND": "Fc1cc(Cl)ccc1Nc1ccnc2cc(-c3ccc(CN4CCCCC4)o3)ccc12 [GW560116]", "OUTPUT_UNIT": "%", "OBSERVED_VALUE": 5}

Okay, now this compound:
## Task In one line, give reported %Inh of the entry O=C(Nc1n[nH]c2cc(-c3cccc(F)c3F)ccc12)C1CC1 [SB-733894] .
## Result 41
